Test system: UO-31
assay.method.text: NCI tumour cell line growth inhibition, 48 h
Active and inactive are the calls of the source. No stated cut-off is given here; in the data, active = GI50 up to about 1.1 µM and inactive = higher.
metric.name: GI50

Some solved entries appear below for comparison.
[
  {
    "compound": "Cc1ccc(S(=O)(=O)ON2C(=O)c3cccc4cc([N+](=O)[O-])cc(c34)C2=O)cc1",
    "GI50": "42.1 µM (inactive)"
  },
  {
    "compound": "O=[N+]([O-])c1ccc2[nH]nc(OCc3ccccc3Cl)c2c1",
    "GI50": "> 10 µM (inactive)"
  },
  {
    "compound": "C=C(C)[C@@H](O)[C@H](O)C[C@H](C)C1CC[C@]2(C)C1=CC[C@@H]1[C@@]3(C)CC[C@@H](OC(C)=O)C(C)(C)[C@@H]3C[C@@H](OC3OC(COC(C)=O)C(O)C(O)C3O)[C@]12C (some centres undefined)",
    "GI50": "3.48 µM (inactive)"
  },
  {
    "compound": "Cc1cccc(/C=C2\\CCCCCC2=O)c1",
    "GI50": "> 100 µM (inactive)"
  },
  {
    "compound": "COc1cc(C2C(Cl)C(=O)N2NC(=O)c2ccccc2O)ccc1O (centres undefined)",
    "GI50": "> 100 µM (inactive)"
  }
]

Can you share its GI50? I mean this compound: COc1ccc(/C=C/C(=O)C(C)C)cc1
80.2 µM (inactive)

Next up: C=C1CC[C@H](O)C(C)(C)[C@@H]1CC/C(C)=C/CC/C=C(\C)CC/C=C(\C)CCC=C(C)C
> 100 µM (inactive)

Next up: CCN(CC)c1ccc(/C=C/C2=NN(c3cccc(S(=O)(=O)O)c3)C3(C2)SCC(=O)N3c2nc3ccccc3s2)cc1 (centres undefined)
29.9 µM (inactive)

Next up: O=C(CCc1cccc(O)c1)NCCc1ccc(O)cc1
> 100 µM (inactive)
